# Tested on: PDC 899932-113-R3-J6 complex spheroid viability
# Test Protocol: Anticancer human tumor 899932-113-R3-J6-PDC patient-derived melanoma cell line growth inhibition [RAS]; active = viability on the fitted dose curve at most 10% of control; inactive = the rest
# Protocol Conditions: compound 1 µM
Tick one outcome: active, inactive

CCN1CCN(Cc2ccc(Nc3ncc(F)c(-c4cc(F)c5nc(C)n(C(C)C)c5c4)n3)nc2)CC1 | inactive
NC1c2ccccc2OC12CCN(c1cnc3c(N4CCCc5ncccc54)n[nH]c3n1)CC2 (stereo not drawn) | inactive
C=CC(=O)N1CCN(c2nc(OCC3CCCN3C)nc3c(F)c(-c4nc(N)cc(C)c4C(F)(F)F)c(Cl)cc23)C(C)C1 (stereo not drawn) | inactive
CC(=O)OC12COC1CC(O)C1(C)C(=O)C(O)C3=C(C)C(OC(=O)C(O)C(NC(=O)OC(C)(C)C)c4ccccc4)CC(O)(C(OC(=O)c4ccccc4)C21)C3(C)C (stereo not drawn) | inactive
C=CC(=O)Nc1cc(Nc2nccc(-c3cn(C)c4ccccc34)n2)c(OC)cc1N(C)CCN(C)C | inactive

input: What outcome does the record of this test show for Nc1ccn(C2OC(CO)C(O)C2(F)F)c(=O)n1 (stereo not drawn) ?
output: inactive

input: What outcome does the record of this test show for `O=C(c1ccc(F)c(F)c1Nc1ccc(I)cc1F)N1CC(O)([C@@H]2CCCCN2)C1` ?
output: active

input: What outcome does the record of this test show for Cc1nc(N2CCC3(CC2)COC(C)C3N)c(CO)nc1Sc1ccnc(N)c1Cl (stereo not drawn) ?
output: inactive

====

# System: PDC 899932-113-R3-J6 complex spheroid viability
# Test Protocol: Anticancer human tumor 899932-113-R3-J6-PDC cell line growth inhibition [RAS];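 also: spheroids exposed to agents for seven days before readout; 100% = DMSO vehicle control wells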
# Protocol Conditions: second compound 0.003 µM; first compound 0.000949 µM; hits give low values
Observation Type: viability, T/C (%)
Report only the number, with the unit % understood.

The examples below pair each entry with its known result.
CCc1c2c(nc3ccc(O)cc13)-c1cc3c(c(=O)n1C2)COC(=O)[C@]3(O)CC + CCn1c(-c2cc(N3CCN(C)CC3)cnc2C(C)OC)c2c3cc(ccc31)-c1csc(n1)CC(NC(=O)C1CC1C)C(=O)N1CCCC(N1)C(=O)OCC(C)(C)C2 | 31.1
CCc1c2c(nc3ccc(O)cc13)-c1cc3c(c(=O)n1C2)COC(=O)[C@]3(O)CC + CCn1c(-c2cccnc2C(C)OC)c2c3cc(ccc31)N1CCOC(CC(NC(=O)C(C(C)C)N(C)C(=O)C3(F)CCN(C(=O)C#CC(C)(C)N(C)C)CC3)C(=O)N3CCCC(N3)C(=O)OCC(C)(C)C2)C1 | 95.3
CC1(C)CCC(Nc2ncc(C(F)(F)F)c(-c3c[nH]c4c(P(C)(C)=O)c(C#N)ccc34)n2)CN1 (centres undefined) + CCn1c(-c2cc(N3CCN(C)CC3)cnc2C(C)OC)c2c3cc(ccc31)-c1csc(n1)CC(NC(=O)C1CC1C)C(=O)N1CCCC(N1)C(=O)OCC(C)(C)C2 | 35

Read the next record carefully.
input: Given CC1(C)CCC(Nc2ncc(C(F)(F)F)c(-c3c[nH]c4c(P(C)(C)=O)c(C#N)ccc34)n2)CN1 (centres undefined) + CCn1c(-c2cccnc2C(C)OC)c2c3cc(ccc31)N1CCOC(CC(NC(=O)C(C(C)C)N(C)C(=O)C3(F)CCN(C(=O)C#CC(C)(C)N(C)C)CC3)C(=O)N3CCCC(N3)C(=O)OCC(C)(C)C2)C1 , respond with its viability, T/C.
output: 112
